- Species: Rattus norvegicus
- measurement_notes: DrugMatrix - Regimen: Daily Repeat
- Format: toxicity, organism-based, Sprague-Dawley
- Design: regimen Daily Repeat, gender Male, age 6-8 weeks
- test_parameters: in vivo, po, 0 mg/kg, 120 h, tissue Blood, route oral GAVAGE, dose level Control, time 5 day, vehicle .5 % CMC
For each record, write down the corresponding MEAN CORPUSCULAR VOLUME.
Answers are plain numbers, in fL.

In the examples that follow, each entry is paired with its recorded MEAN CORPUSCULAR VOLUME.
{"columns": ["molecule", "MEAN CORPUSCULAR VOLUME [fL]"],
 "data": [
  ["Nc1cccc(Cl)c1", 65.9],
  ["COc1ccccc1OCC(O)COC(N)=O (stereo not drawn)", 61.53],
  ["C=C(CC)C(=O)c1ccc(OCC(=O)O)c(Cl)c1Cl", 59.55],
  ["CO[C@H]1C[C@@H]2CC[C@@H](C)[C@@](O)(O2)C(=O)C(=O)N2CCCC[C@H]2C(=O)O[C@H]([C@H](C)C[C@@H]2CC[C@@H](O)[C@H](OC)C2)CC(=O)[C@H](C)/C=C(\\C)[C@@H](O)[C@@H](OC)C(=O)[C@H](C)C[C@H](C)/C=C/C=C/C=C/1C", 62.4],
  ["CC(C(=O)O)c1ccc(-c2ccccc2)c(F)c1 (stereo not drawn)", 61.92],
  ["C[C@]12C/C(=C/O)C(=O)C[C@@H]1CC[C@@H]1[C@@H]2CC[C@@]2(C)[C@H]1CC[C@]2(C)O", 63.88]
]}

Each molecule below has a reported value. Please supply its MEAN CORPUSCULAR VOLUME.
1. CC(C)(Sc1cc(C(C)(C)C)c(O)c(C(C)(C)C)c1)Sc1cc(C(C)(C)C)c(O)c(C(C)(C)C)c1
2. CCOC(=O)[C@H](CCc1ccccc1)N[C@@H](C)C(=O)N1Cc2ccccc2C[C@H]1C(=O)O

1. 61.92
2. 63.67
